- experimental.system: Peroxisome proliferator-activated receptor gamma (Homo sapiens) (UniProt P37231)
- Sequence (P37231 whole entry, looked up): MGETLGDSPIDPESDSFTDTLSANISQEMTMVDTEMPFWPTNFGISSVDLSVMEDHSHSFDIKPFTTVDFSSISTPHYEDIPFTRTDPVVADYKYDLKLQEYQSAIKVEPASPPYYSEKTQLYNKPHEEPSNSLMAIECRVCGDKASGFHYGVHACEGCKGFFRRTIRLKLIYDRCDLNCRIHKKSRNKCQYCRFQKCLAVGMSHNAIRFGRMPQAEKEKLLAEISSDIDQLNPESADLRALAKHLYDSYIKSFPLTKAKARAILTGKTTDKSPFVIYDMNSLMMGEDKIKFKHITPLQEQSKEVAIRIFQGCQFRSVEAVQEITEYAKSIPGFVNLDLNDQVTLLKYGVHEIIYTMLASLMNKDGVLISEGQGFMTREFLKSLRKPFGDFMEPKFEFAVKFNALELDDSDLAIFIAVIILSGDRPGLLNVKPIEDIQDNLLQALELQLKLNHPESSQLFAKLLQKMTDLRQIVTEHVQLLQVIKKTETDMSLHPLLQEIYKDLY
- test.method.notes: ATG_PPARg_TRANS: Attagene TRANS-FACTORIAL HepG2 Assay for human Peroxisome Proliferator-activated Receptor-gamma (PPARg) (AID 2283007)
Inconclusive results are not listed. Activity calls are given as the source filed them. Rule for the calls: active = hit-call score of the fitted dose curve at least 0.9, where 1 is the maximum; inconclusive = response in the unintended direction; inactive = score below 0.9.
metric.name: AC50

// known answers, use as guide
CSC(=O)c1c(C(F)F)nc(C(F)(F)F)c(C(=O)SC)c1CC(C)C: 10.9 µM (active)
CC(C)Nc1nc(Cl)nc(NC(C)C)n1: inactive
COCc1cnc(C2=NC(C)(C(C)C)C(=O)N2)c(C(=O)O)c1 (stereo not given): inactive
CCOP(=O)(OCC)Oc1nc(Cl)c(Cl)cc1Cl: 30.8 µM (active)
CCCCC(O)(Cn1cncn1)c1ccc(Cl)cc1Cl (stereo not given): inactive
Nc1c(Cl)c(Cl)nc(C(=O)O)c1Cl: inactive

Fill in AC50 for each of the 4 molecules listed.
1. COC(=O)NS(=O)(=O)c1ccc(N)cc1
2. N#Cc1c[nH]cc1-c1cccc2c1OC(F)(F)O2
3. Cc1cnc(C2=NC(C)(C(C)C)C(=O)N2)c(C(=O)O)c1 (stereo not given)
4. Cc1nc(N(C)C)nc(OC(=O)N(C)C)c1C

Response:
1. inactive
2. 19.5 µM (active)
3. inactive
4. inactive
